Recorded IC50 values (KDM4C (JMJD2C) (Homo sapiens, UniProt Q9H3R0)) are given below.

Completed entries (count: 2):
{"compound": "O=C(O)c1ccnc(CNCc2cn(Cc3ccc(F)cc3)c3ccc(F)cc23)c1 [Compound 86]", "result_value": "> 2500 nM"}
{"compound": "C=CCN(CC=C)C(=O)[C@H](CC(=O)NCCCN(C)C)NCc1cc(C(=O)O)ccn1 [Compound 10]", "result_value": "> 2500 nM"}

Let us examine a further case.
Req: Report IC50 on KDM4C (JMJD2C) (Homo sapiens, UniProt Q9H3R0) for this entry: Cc1cn2c(n1)CCN(Cc1cc(C(=O)O)ccn1)CCC2 [Compound 67]
Sequence (Q9H3R0 1-349): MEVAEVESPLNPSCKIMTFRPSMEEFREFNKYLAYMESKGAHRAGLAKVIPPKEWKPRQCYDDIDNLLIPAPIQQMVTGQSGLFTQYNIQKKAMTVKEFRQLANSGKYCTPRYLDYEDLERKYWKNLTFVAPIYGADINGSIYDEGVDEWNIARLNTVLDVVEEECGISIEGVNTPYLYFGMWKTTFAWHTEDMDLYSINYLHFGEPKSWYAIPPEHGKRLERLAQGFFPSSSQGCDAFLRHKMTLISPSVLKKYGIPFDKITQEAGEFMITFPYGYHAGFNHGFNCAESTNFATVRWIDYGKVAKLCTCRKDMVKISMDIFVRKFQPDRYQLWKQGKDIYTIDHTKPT
Resp: > 2500 nM

---

# target_desc: KDM5B (PLU-1) (Homo sapiens, UniProt Q9UGL1)
# Construct: 1-809; host or cells: E. coli
# Sequence (Q9UGL1 1-809): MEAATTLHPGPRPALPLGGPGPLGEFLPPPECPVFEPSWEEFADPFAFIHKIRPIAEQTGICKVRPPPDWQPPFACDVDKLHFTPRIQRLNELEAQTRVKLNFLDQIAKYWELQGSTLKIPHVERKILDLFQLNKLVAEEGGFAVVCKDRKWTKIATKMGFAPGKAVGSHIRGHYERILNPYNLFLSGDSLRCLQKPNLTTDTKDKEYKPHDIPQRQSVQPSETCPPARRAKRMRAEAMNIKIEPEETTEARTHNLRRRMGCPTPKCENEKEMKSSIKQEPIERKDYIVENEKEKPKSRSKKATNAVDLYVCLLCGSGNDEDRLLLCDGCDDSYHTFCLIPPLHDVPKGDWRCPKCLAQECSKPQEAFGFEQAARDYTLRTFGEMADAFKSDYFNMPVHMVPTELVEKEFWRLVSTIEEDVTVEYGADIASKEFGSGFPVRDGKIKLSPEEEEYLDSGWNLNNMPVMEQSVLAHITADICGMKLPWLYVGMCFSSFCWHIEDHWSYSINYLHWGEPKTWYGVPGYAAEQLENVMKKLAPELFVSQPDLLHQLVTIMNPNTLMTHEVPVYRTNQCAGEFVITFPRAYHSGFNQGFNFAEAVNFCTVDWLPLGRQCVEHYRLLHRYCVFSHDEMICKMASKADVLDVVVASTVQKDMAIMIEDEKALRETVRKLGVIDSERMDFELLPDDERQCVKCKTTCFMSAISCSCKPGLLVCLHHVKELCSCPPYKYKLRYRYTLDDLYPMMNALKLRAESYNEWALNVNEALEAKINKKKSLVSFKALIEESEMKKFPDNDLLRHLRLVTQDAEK
# assay_text: Histone lysine demethylase AlphaLISA assay, KDM5B
# Format: biochemical
# condition_parameters: in vitro enzyme, read-out: KDM5B IC50 (HDME Inhibition)
pIC50: −log10 of the molar value.
metric: pIC50

Completed entries (count: 3):
{"compound": "O=C(N1CC2(CC2)COC1c1ccnc(CN2CCCn3ccnc3C2)c1)C(F)(F)F (stereo not shown)", "pIC50": "> 6.60"}
{"compound": "CC(N[C@@H](C)C(=O)NCc1ccc([N+](=O)[O-])cc1)c1cc(C(=O)O)ccn1 (stereo partly shown)", "pIC50": "< 5.60"}
{"compound": "O=C(O)c1ccnc(CN2CCCC(c3ccccc3)C2CO)c1 (stereo not shown)", "pIC50": "< 5.60"}

Let us examine a further case.
Req: Answer with the recorded pIC50 for the compound listed here: CC(NCC(=O)N1CCCCC1)c1cc(C(=O)O)ccn1 (stereo not shown)
Resp: 5.60 to 6.60

---

# target_desc: KDM2B (FBXL10) (Homo sapiens, UniProt Q8NHM5)
# Sequence (Q8NHM5 1-650): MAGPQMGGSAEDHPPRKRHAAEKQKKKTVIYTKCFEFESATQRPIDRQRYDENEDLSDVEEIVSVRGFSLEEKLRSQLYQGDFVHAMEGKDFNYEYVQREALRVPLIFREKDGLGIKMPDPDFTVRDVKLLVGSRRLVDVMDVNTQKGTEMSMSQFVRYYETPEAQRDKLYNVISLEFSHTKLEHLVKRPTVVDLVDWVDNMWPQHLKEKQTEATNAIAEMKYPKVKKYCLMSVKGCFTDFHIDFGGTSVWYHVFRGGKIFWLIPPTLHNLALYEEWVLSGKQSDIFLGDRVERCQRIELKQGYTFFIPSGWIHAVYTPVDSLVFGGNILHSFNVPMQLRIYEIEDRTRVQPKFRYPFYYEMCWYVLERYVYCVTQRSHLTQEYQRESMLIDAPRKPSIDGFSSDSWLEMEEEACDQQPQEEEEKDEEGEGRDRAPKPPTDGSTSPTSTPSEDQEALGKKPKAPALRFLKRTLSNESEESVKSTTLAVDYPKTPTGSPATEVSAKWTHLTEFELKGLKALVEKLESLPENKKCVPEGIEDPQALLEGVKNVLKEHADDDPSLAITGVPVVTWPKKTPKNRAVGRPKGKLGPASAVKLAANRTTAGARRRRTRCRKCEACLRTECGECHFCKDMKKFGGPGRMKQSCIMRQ
pIC50: −log10 of the molar value.
metric: pIC50

Completed entries (count: 5):
{"compound": "CCN(CC)C(=O)CCN(CC(N)=O)C(C)c1cc(C(=O)O)ccn1 (centres unmarked) [Compound 31]", "result_value": "< 5.60"}
{"compound": "CC(c1cc(C(=O)O)ccn1)N(C)CC(=O)N1CCCCC1 (centres unmarked) [Compound 47]", "result_value": "5.60 to 6.60"}
{"compound": "CSCC[C@H](NCc1cc(C(=O)O)ccn1)C(=O)OC(C)(C)C [Compound 49]", "result_value": "5.60 to 6.60"}
{"compound": "C=CCN(CC=C)C(=O)[C@@H](CC(=O)NCCCC)NCc1cc(C(=O)O)ccn1 [Compound 24]", "result_value": "5.60 to 6.60"}
{"compound": "CCNC(=O)C[C@H]1CCN(Cc2cc(C(=O)O)ccn2)C1 [Compound 73]", "result_value": "5.60 to 6.60"}

Req: Answer with the recorded pIC50 for the compound listed here: NC(=O)CCN(CC(=O)N1CCCCC1)Cc1cc(C(=O)O)ccn1 [Compound 34]
Resp: 5.60 to 6.60

Req: Answer with the recorded pIC50 for the compound listed here: O=C(O)c1ccnc(CNC2CCc3c(Cc4ccccc4)ccnc32)c1 (centres unmarked) [Compound 92]
Resp: 5.60 to 6.60

Req: Answer with the recorded pIC50 for the compound listed here: O=C(O)c1ccnc(CNC2CCc3cc(Br)cnc32)c1 (centres unmarked) [Compound 103]
Resp: > 6.60

Req: Answer with the recorded pIC50 for the compound listed here: O=C(O)c1ccnc(CNC2CCc3c(CCc4ccccc4)ccnc32)c1 (centres unmarked) [Compound 96]
Resp: > 6.60

Req: Answer with the recorded pIC50 for the compound listed here: COc1ccc([C@@H](C)N2CCC[C@@H](CNCc3cc(C(=O)O)ccn3)C2=O)cc1 [Compound 80]
Resp: > 6.60

Req: Answer with the recorded pIC50 for the compound listed here: CCN1CC[C@H](CNCc2cc(C(=O)O)ccn2)C1=O [Compound 106]
Resp: > 6.60

Req: Answer with the recorded pIC50 for the compound listed here: O=C(O)c1ccnc(CNC2CCc3cccnc32)c1 (centres unmarked) [Compound 98]
Resp: 5.60 to 6.60

Req: Answer with the recorded pIC50 for the compound listed here: CC1(C)Cc2cccnc2C1NCc1cc(C(=O)O)ccn1 (centres unmarked) [Compound 102]
Resp: 5.60 to 6.60

Req: Answer with the recorded pIC50 for the compound listed here: C=CCN(CC=C)C(=O)[C@H](CCCCNC(=O)OC(C)(C)C)NCc1cc(C(=O)O)ccn1 [Compound 40]
Resp: 5.60 to 6.60

Req: Answer with the recorded pIC50 for the compound listed here: CC(C)c1ccnc2c1CCC2NCc1cc(C(=O)O)ccn1 (centres unmarked) [Compound 99]
Resp: > 6.60

Req: Answer with the recorded pIC50 for the compound listed here: CC(C)C[C@@H]1[C@@H](O)CC(C)N1Cc1cc(C(=O)O)ccn1 (some centres unmarked) [Compound 59]
Resp: 5.60 to 6.60

Req: Answer with the recorded pIC50 for the compound listed here: CCN(CC)C(=O)CCN(CCO)Cc1cc(C(=O)O)ccn1 [Compound 44]
Resp: 5.60 to 6.60

---

Recorded IC50 values (UniProt O15550) are given below.
Sequence (O15550 919-1401): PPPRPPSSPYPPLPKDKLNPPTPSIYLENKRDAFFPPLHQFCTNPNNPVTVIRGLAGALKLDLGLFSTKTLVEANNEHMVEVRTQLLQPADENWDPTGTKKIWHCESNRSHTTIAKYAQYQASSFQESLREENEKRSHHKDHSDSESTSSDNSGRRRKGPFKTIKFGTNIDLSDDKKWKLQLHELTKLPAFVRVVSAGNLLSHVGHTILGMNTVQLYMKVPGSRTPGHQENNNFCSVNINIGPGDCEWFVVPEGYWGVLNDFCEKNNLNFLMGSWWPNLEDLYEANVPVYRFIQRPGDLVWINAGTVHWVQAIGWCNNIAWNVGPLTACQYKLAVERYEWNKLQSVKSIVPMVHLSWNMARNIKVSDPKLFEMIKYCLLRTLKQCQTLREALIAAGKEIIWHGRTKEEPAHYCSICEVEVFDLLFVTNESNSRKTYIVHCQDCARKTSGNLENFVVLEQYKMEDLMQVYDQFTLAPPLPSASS

Completed entries (count: 2):
{"record_smiles": "O=C(O)c1ccnc(CNCc2cn(Cc3ccc(F)cc3)c3ccc(F)cc23)c1", "IC50": "> 2.5 µM"}
{"record_smiles": "O=C(O)c1ccnc(CN2CCCn3ccnc3C2)c1", "IC50": "> 2.5 µM"}

Req: Report IC50 on UniProt O15550 for this entry: C[C@H](c1ccccc1)N1CCC[C@@H](CNCc2cc(C(=O)O)ccn2)C1=O
Resp: > 2.5 µM

---

# target_desc: KDM5B (PLU-1) (Homo sapiens, UniProt Q9UGL1)
pIC50: −log10 of the molar value.
metric: pIC50

Completed entries (count: 4):
{"molecule": "CC(C)(C)OC(=O)NCCCC[C@@H](CO)NCc1cc(C(=O)O)ccn1 [Compound 22]", "pIC50": "> 6.60"}
{"molecule": "O=C(O)c1ccnc(CNC2CCn3ccnc32)c1 (stereo not drawn) [Compound 93]", "pIC50": "> 6.60"}
{"molecule": "C[C@H](c1ccccc1)N1CC[C@H](CNCc2cc(C(=O)O)ccn2)C1=O [Compound 82]", "pIC50": "> 6.60"}
{"molecule": "O=C(O)c1ccnc(CNC2CCc3c(Br)ccnc32)c1 (stereo not drawn) [Compound 91]", "pIC50": "> 6.60"}

Req: Report pIC50 on KDM5B (PLU-1) (Homo sapiens, UniProt Q9UGL1) for this entry: COc1ccnc2c1CCC2NCc1cc(C(=O)O)ccn1 (stereo not drawn) [Compound 101]
Resp: > 6.60

Req: Report pIC50 on KDM5B (PLU-1) (Homo sapiens, UniProt Q9UGL1) for this entry: CC[C@H]1CCN(Cc2cc(C(=O)O)ccn2)[C@@H]1CO [Compound 65]
Resp: < 5.60
